# assay_target: T1, Recombinant Human DLL4 (delta-like protein 4) (human, UniProt Q9NR61 27-524)
# T1 construct: Bought (R&D Systems Cat#1506-D4/CF); also called rHuman DLL4
# assay_overview: SPR, Fab on recombinant human DLL4; standard deviation in parentheses
observation_type: Kd (nM)
Answer format: numeric, nM implied, no suffix.

stdin: What value of measured Kd is listed for Fab VH5-51_IGHD5-18*01>3_IGHJ4*01_G100K_G104T & V3-4_IGLJ1*01 (Fab, V domains shown, Modified anti-DLL4 Fab; lambda Plasmid E)) VH: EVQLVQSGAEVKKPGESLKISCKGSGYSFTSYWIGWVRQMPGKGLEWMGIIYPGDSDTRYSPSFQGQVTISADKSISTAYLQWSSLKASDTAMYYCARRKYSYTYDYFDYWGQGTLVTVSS VL: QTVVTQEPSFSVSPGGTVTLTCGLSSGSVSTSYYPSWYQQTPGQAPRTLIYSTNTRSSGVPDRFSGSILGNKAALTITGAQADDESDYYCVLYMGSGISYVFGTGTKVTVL ?
stdout: 355

stdin: And the next one, Fab VH6-1_IGHD3-3*01_IGHJ4*01 & V4-3_IGLJ4*01 (Fab, V domains shown, Germline Fab from E. coli; VH joined to CH1 with Flag/His tags (Plasmid A), VL to lambda constant region (Plasmid E)) VH: QVQLQQSGPGLVKPSQTLSLTCAISGDSVSSNSAAWNWIRQSPSRGLEWLGRTYYRSKWYNDYAVSVKSRITINPDTSKNQFSLQLNSVTPEDTAVYYCAREYYDFWSGYYTDYFDYWGQGTLVTVSS VL: QPVLTQPTSLSASPGASARLTCTLRSGINLGSYRIFWYQQKPESPPRYLLSYYSDSSKHQGSGVPSRFSGSKDASSNAGILVISGLQSEDEADYYCMIWHSSASFVFGGGTQLIIL ?
stdout: 38000

stdin: Thanks! And Fab VH5-51_IGHD5-18*01>3_IGHJ4*01 & V3-4_IGLJ1*01 (Fab, V domains shown, Germline Fab from E. coli; VH joined to CH1 with Flag/His tags (Plasmid A), VL to lambda constant region (Plasmid E)) VH: EVQLVQSGAEVKKPGESLKISCKGSGYSFTSYWIGWVRQMPGKGLEWMGIIYPGDSDTRYSPSFQGQVTISADKSISTAYLQWSSLKASDTAMYYCARRGYSYGYDYFDYWGQGTLVTVSS VL: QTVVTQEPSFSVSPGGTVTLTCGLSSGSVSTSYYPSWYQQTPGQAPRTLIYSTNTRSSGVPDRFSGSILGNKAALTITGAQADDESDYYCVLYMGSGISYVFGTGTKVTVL ?
stdout: 4800

stdin: Likewise for Fab VH1-46_IGHD6-6*01_IGHJ1*01_S102A_S103P_S104F & L6_IGKJ1*01_S31K (Fab, V domains shown, Modified anti-DLL4 Fab) VH: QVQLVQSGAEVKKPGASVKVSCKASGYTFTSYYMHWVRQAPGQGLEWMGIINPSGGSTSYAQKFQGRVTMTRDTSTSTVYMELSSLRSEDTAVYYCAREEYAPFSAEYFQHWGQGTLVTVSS VL: EIVLTQSPATLSLSPGERATLSCRASQSVSKYLAWYQQKPGQAPRLLIYDASNRATGIPARFSGSGSGTDFTLTISSLEPEDFAVYYCQQRSNWPPWTFGQGTKVEIKR ?
stdout: 112
